System: IGROV1 ovarian
Assay: NCI-60 one-dose screen, 48 h (100 = growth as untreated, 0 = no growth, -100 = all killed)
Settings: 10 µM
Experimental: Growth inhibition of the IGROV1 human tumor cell line is measured as a screen for anti-cancer activity. Cells are grown in 96 well plates and exposed to the test compound for 48 hours. Compounds are tested at a single concentration, which is 10^-5 M for most compounds. The reported endpoint is percent growth (GI% or GIPRCNT), where numbers from 0 - 100% represent growth inhibition, and numbers from -100% - 0 represent cell death. For example, a value of 40 represents 60% growth inhibition. […]
Compounds without any hit were thinned out: in the full panel of roughly 83,000, 20% have a hit. Activity calls are given as the source filed them. How the source made its calls: active means growth percent below 10; inactive means the rest.
Listing: growth of selected compounds

In [3]: df
Out[3]:
                                   compound  recorded_endpoint          reported
0   O=C(CCl)Nc1ccc(Cc2ccc(NC(=O)CCl)cc2)cc1             growth   -45.9% (active)
1  CN(C)CCOc1cccc(-c2nc3sccn3c2-c2ccnc(S(C)(=O)=O)n2)c1             growth  94.3% (inactive)
2      CNS(=O)(=O)Oc1ccc(-c2ccc3occc3c2)cc1             growth  99.8% (inactive)
3  CNC(=O)c1cc(Oc2ccc3c(c2)sc2nc(-c4ccc(N)cc4)cn23)ccn1             growth  31.6% (inactive)
4  COc1ccc(-c2nn(-c3cccc(Cl)c3)cc2/C=C2\NC(=S)N(c3ccc(Cl)cc3)C2=O)cc1             growth   -16.2% (active)
5  Cc1ccc(C(=O)C2C(=O)C3CCC2C3)cc1 (centres undefined)             growth   113% (inactive)
6  C[C@]12CC[C@@H]3c4ccc(OS(=O)(=O)O)cc4CC[C@H]3[C@@H]1CC[C@@H]2NS(=O)(=O)c1ccc(-c2ccccc2)cc1             growth  70.4% (inactive)
7  CCOC(=O)c1cc(C(=O)c2cc(OC)cc(OC)c2)n2nc(C)ccc12             growth  44.8% (inactive)
8                    N#CCc1csc(Cc2ccccc2)n1             growth   108% (inactive)
9  COc1cc2cc(Oc3ccc(NC(=O)Nc4ccc(Cl)c(C(F)(F)F)c4)cc3)c(C)nc2cc1OC             growth   -7.69% (active)

Endpoint output: growth of Cc1c2cnccc2c(C)c2c1c1cc(O)ccc1n2C(C)C . Value?
7.7% (active)

Can you share its growth? I mean this compound: Cc1ccccc1N1C(=O)c2cc(S(N)(=O)=O)c(Cl)cc2NC1C (centres undefined)
111% (inactive)

growth for CCOC(=O)c1cc(C(=O)c2cc(OC)cc(OC)c2)n2ncc3ccccc3c12 ?
43.5% (inactive)

// lookup growth for C[C@H]1[C@H](OC(=O)CCC(=O)O)O[C@@H]2O[C@]3(C)CC[C@H]4[C@H](C)CC[C@@H]1[C@@]24OO3
54.5% (inactive)

What value of growth has been reported for the following compound? CCOC(=O)C(C)(c1ccccc1)c1ccccc1
106% (inactive)

# lookup: growth of NS(=O)(=O)Oc1ccc(-c2ccc3sccc3c2)cc1
101% (inactive)

Which growth value belongs to CCN1CCN(CCC(=O)Nc2cccc(-n3cc(-c4ccncc4)c(-c4ccc(Cl)c(OC)c4)n3)c2)CC1 ?
47.2% (inactive)

Can you look up the measured growth of CC(C)c1cc(N=O)cc(C(C)C)c1O for me?
121% (inactive)

Sample CCN(CC)CCNc1ccc(C)c2sc3cc(Cl)ccc3c(=O)c12 — what was its growth?
20.4% (inactive)

Would you mind telling me what growth value was observed for S=C(NCc1ccccc1)NCc1ccccc1 ?
97.4% (inactive)

Which value of growth has been reported for CC(CN(C)C)Oc1ccc(OC(C)CN(C)C)c2c1C(=O)c1ccccc1C2=O (centres undefined) in the records?
37.3% (inactive)

Fill in: growth of COc1cc(C(=O)N2CCN(c3cc4c(cc3F)c(=O)c(C(=O)NO)cn4C3CC3)CC2)cc(OC)c1OC is ___
110% (inactive)

// lookup growth for CCOC(=O)/C(=C(\C)N)C1CC(=O)NC1=O (centres undefined)
118% (inactive)

Consider the compound shown here: CCc1ccc(C2=NN(c3ccc(S(C)(=O)=O)cc3)C(=O)CC2)cc1 What is its recorded growth?
37.4% (inactive)
